# METHOD_NOTES: AUC (0 to 48 hrs) in Sprague-Dawley rat at 1 mg/kg, iv administered as bolus dose
# Type: ADME, organism-based
# Parameters: time < 48 hr, dose 1 mg/kg, route intravenous
# CONDITION_INFO: plasma
Overview of reported AUC(0-t) at 48 h across a group of molecules:
ASSAY_ENDPOINT: AUC(0-t) at 48 h (nM·h)

> print(dat)
                                   molecule  recorded.result
1  Cc1ccc(NC(=O)c2ccc(CN3CCN(C)CC3)cc2)cc1Nc1nccc(-c2cccnc2)n1 [IMATINIB]             1420
2  [2H]C([2H])([2H])N1CCN(Cc2ccc(C(=O)Nc3ccc(C)c(Nc4nccc(-c5cccnc5)n4)c3)cc2)CC1             1150

* * *

# ASSAYED_TARGET: Bcr/Abl fusion protein (Homo sapiens)
# Sequence (P00519 whole entry, the tested form may be a part): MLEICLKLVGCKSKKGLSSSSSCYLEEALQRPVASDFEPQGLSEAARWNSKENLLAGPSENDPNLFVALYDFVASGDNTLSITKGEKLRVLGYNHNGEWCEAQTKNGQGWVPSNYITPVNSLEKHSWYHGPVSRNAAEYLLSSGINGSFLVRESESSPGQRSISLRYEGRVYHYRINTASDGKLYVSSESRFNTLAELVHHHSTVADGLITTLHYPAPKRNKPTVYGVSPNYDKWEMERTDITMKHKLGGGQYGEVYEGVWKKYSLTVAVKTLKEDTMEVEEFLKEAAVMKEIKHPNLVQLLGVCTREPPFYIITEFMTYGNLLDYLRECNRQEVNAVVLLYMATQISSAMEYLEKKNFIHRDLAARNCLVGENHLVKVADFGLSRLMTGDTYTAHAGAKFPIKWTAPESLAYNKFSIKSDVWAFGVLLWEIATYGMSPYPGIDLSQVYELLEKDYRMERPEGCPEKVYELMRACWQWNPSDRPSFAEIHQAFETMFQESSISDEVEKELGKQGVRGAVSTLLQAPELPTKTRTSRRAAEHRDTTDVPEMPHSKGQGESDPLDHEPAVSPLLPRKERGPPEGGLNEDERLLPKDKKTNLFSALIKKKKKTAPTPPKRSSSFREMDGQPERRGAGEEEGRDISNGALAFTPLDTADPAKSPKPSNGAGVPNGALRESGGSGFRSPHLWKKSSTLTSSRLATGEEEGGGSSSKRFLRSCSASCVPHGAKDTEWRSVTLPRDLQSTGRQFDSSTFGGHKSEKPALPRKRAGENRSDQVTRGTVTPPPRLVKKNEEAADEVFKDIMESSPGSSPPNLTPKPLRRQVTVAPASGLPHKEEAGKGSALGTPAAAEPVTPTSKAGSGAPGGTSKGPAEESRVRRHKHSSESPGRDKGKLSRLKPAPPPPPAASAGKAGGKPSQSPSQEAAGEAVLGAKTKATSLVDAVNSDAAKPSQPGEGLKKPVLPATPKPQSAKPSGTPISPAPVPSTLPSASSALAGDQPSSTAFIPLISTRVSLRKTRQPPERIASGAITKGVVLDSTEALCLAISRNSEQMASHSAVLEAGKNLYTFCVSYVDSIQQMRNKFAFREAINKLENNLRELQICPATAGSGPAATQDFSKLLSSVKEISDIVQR
# Sequence (P11274 whole entry, further chain, the tested form may be a part): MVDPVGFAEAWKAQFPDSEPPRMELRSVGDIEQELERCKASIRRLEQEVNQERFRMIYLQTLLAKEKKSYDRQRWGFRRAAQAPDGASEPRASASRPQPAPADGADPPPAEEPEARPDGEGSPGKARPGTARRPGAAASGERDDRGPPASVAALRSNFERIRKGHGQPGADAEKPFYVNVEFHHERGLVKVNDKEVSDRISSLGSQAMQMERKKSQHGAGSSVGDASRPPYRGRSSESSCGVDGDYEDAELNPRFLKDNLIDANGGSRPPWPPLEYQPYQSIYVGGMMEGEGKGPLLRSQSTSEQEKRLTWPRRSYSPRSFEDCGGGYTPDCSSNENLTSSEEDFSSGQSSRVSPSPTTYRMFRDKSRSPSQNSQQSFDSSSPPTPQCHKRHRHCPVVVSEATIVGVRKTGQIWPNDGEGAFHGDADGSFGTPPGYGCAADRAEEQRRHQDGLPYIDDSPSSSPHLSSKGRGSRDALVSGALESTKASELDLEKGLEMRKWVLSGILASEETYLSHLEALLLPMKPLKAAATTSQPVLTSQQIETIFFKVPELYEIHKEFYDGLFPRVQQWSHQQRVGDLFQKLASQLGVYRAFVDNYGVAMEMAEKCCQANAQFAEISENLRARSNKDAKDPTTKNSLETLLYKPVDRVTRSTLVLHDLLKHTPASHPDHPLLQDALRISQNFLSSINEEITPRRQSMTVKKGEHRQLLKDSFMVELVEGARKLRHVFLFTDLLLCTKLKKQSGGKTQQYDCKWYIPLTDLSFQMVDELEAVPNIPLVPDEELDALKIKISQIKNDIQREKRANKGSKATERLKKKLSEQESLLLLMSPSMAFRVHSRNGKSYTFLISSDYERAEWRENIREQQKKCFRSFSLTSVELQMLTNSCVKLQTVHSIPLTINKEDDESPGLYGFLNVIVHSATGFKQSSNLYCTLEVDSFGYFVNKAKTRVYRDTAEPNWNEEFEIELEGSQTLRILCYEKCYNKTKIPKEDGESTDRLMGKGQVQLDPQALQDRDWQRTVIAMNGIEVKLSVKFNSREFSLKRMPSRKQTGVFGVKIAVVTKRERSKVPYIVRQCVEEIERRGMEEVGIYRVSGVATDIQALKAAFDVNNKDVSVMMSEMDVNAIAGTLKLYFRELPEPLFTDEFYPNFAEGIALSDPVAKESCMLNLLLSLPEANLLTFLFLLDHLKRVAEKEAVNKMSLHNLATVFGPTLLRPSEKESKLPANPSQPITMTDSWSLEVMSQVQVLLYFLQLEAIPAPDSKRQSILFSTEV
# METHOD_NOTES: Inhibition of human BCR-ABL1 expressed in mouse BA/F3 cells assessed as cell growth inhibition by ATP-depletion assay
# Type: cell-based, BaF3
pIC50: −log10 of the molar value.
ASSAY_ENDPOINT: pIC50

> print(dat)
                                        smi  assay.endpoint  recorded.result
1  Cc1ccc(NC(=O)c2ccc(CN3CCNCC3)cc2)cc1Nc1nccc(-c2cccnc2)n1           pIC50             5.81

* * *

# METHOD_NOTES: in vivo
# CONDITION_INFO: Sprague-Dawley, rat, plasma, iv, 1 mg/kg
ASSAY_ENDPOINT: AUC (µM·h)

> print(dat)
                                        smi  recorded.result
1  Cc1ccc(NC(=O)c2ccc(CN3CCN(C)CC3)cc2)cc1Nc1nccc(-c2cccnc2)n1             1.97
2  [2H]C([2H])([2H])N1CCN(Cc2ccc(C(=O)Nc3ccc(C)c(Nc4nccc(-c5cccnc5)n4)c3)cc2)CC1             1.85

* * *

# ASSAYED_TARGET: Bcr/Abl fusion protein (Homo sapiens)
# METHOD_NOTES: Inhibition of human BCR-ABL1 (unknown origin) expressed in mouse 32D cells
# Assay type: cell-based
ASSAY_ENDPOINT: IC50 (nM)

> print(dat)
                                        smi  assay.endpoint  unit.symbol  recorded.result
1  Cc1ccc(NC(=O)c2ccc(CN3CCNCC3)cc2)cc1Nc1nccc(-c2cccnc2)n1            IC50           nM              512

* * *

# ASSAYED_TARGET: Mast/stem cell growth factor receptor Kit (Homo sapiens, UniProt P10721, K642E)
# Sequence (P10721 26-976 K642E limits assumed): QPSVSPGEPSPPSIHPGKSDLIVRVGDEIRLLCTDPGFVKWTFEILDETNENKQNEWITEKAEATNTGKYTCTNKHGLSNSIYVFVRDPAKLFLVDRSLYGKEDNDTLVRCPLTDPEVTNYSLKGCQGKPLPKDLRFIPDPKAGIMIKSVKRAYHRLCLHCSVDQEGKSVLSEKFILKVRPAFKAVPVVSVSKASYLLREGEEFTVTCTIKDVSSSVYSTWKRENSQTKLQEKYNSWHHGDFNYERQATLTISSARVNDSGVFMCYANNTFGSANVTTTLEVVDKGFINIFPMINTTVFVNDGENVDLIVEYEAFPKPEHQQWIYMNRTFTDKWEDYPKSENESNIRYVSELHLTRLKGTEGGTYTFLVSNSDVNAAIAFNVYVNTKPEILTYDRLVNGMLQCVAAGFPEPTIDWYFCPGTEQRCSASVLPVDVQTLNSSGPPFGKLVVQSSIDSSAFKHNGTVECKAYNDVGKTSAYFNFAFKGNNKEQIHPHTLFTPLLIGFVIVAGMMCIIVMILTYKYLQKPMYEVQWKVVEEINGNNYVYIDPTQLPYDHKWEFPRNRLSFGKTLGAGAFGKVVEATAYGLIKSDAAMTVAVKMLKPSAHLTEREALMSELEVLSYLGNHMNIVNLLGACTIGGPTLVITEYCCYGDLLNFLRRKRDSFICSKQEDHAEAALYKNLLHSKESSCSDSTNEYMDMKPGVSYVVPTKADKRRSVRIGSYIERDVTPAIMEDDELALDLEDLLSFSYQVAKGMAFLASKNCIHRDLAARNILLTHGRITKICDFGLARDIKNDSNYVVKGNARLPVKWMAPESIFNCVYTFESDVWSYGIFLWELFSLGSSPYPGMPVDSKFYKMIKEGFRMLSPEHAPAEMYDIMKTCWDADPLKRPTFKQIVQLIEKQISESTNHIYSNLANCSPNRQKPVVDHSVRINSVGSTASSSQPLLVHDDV
# METHOD_NOTES: Inhibition of KIT K642E mutant autophosphorylation (unknown origin) expressed in human GIST882 cells by ELISA
ASSAY_ENDPOINT: IC50 (nM)

> print(dat)
                                        smi                            assayed.target  assay.endpoint  unit.symbol  recorded.result
1  Cc1ccc(NC(=O)c2ccc(CN3CCNCC3)cc2)cc1Nc1nccc(-c2cccnc2)n1  Mast/stem cell growth factor receptor Kit (Homo sapiens, UniProt P10721, K642E)            IC50           nM              342
